- test_context: human;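 also: value is a count of indexed literature references reporting granulomatous liver disease confirmed by histopathology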
Listed below: Hepatotoxicity (granulomatous hepatitis) values for each entry.

compound	Hepatotoxicity (granulomatous hepatitis)
O=C1CCC(N2C(=O)c3ccccc3C2=O)C(=O)N1 (centres undefined) [THALIDOMIDE]	0
CN1C(CSCC(F)(F)F)Nc2cc(Cl)c(S(N)(=O)=O)cc2S1(=O)=O (centres undefined) [POLYTHIAZIDE]	0
Cc1cc(CC(=O)O)n(C)c1C(=O)c1ccc(Cl)cc1 [ZOMEPIRAC]	0
CCCCN/C(=C1/C=C(Cl)C=CC1=O)c1ccccc1Cl	0
COc1c(N2CCNC(C)C2)c(F)cc2c(=O)c(C(=O)O)cn(C3CC3)c12 (centres undefined)	0
OCCN1CCN(CCCN2c3ccccc3Sc3ccc(C(F)(F)F)cc32)CC1	0
Oc1ncnc2[nH]ncc12	13
CC(C(=O)O)c1ccc(CC2CCCC2=O)cc1 (centres undefined)	0
COCc1c(C(C)C)nc(C(C)C)c(/C=C/[C@@H](O)C[C@@H](O)CC(=O)O)c1-c1ccc(F)cc1	0
COc1c2occc2c(OC)c2c(=O)cc(C)oc12	0
CCCC1C(=O)N2C(N(C)C)=Nc3ccc(C)cc3N2C1=O (centres undefined)	1
CN1C(C(=O)Nc2ccccn2)=C(O)c2ccccc2S1(=O)=O	1
Cc1cc2c(C(C)C)c(O)c(O)c(C=O)c2c(O)c1-c1c(C)cc2c(C(C)C)c(O)c(O)c(C=O)c2c1O	0
CCC1(C)CC(=O)NC1=O (centres undefined) [ETHOSUXIMIDE]	0
CC(C)CN(C[C@@H](O)[C@H](Cc1ccccc1)NC(=O)O[C@H]1CCOC1)S(=O)(=O)c1ccc(N)cc1	0
O=NN(CCCl)C(=O)NCCCl	0
CN1CCC[C@@H]1CCO[C@](C)(c1ccccc1)c1ccc(Cl)cc1	0
O=C(O)c1cc(=O)c2c(OCC(O)COc3cccc4oc(C(=O)O)cc(=O)c34)cccc2o1	1
CC(=O)O[C@H]1C[C@@]2(C)[C@@H](C[C@@H](O)[C@H]3[C@@]4(C)CC[C@@H](O)[C@@H](C)[C@@H]4CC[C@@]32C)/C1=C(\CCC=C(C)C)C(=O)O	0
CCOP(=O)(OCC)C(C)NC(=O)N(CCCl)N=O (centres undefined)	0
CC(C)(C)c1ccc(CCC(O)COc2ccc(C(=O)O)cc2)cc1 (centres undefined)	0
CC[C@H]1OC(=O)[C@H](C)[C@@H](O[C@H]2C[C@@](C)(OC)[C@@H](O)[C@H](C)O2)[C@H](C)[C@@H](O[C@@H]2O[C@H](C)C[C@H](N(C)C)[C@H]2O)[C@](C)(O)C[C@](C)(F)C(=O)[C@H](C)[C@@H](O)[C@]1(C)O	0
CCCc1c2oc(C(=O)O)cc(=O)c2cc2c(=O)cc(C(=O)O)n(CC)c12	0
C/C=C(/CC)C(=O)NC(N)=O	0
COCc1c(C(=O)OC(C)C)ncc2[nH]c3ccc(OCc4ccccc4)cc3c12	0
CC(=O)N[C@H]1[C@H]([C@H](O)[C@H](O)CO)OC(C(=O)O)=C[C@@H]1N=C(N)N	0
CCOC(=O)/C=C(C)/C=C/C=C(C)/C=C/c1c(C)cc(OC)c(C)c1C [ETRETINATE]	1
CN1CCN2c3ccccc3Cc3ccccc3C2C1 (centres undefined)	0
O=C1CN(/N=C/c2ccc(-c3ccc([N+](=O)[O-])cc3)o2)C(O)=N1	0
CC(C)(Oc1ccc(Cl)cc1)C(=O)NC(=O)NCN1CCOCC1 [PLAFIBRIDE]	0
Nc1ccn([C@@H]2O[C@H](CO)[C@@H](O)C2(F)F)c(=O)n1	0
CO/N=C(\C(=O)N[C@@H]1C(=O)N2C(C(=O)[O-])=C(C[n+]3ccc(N)n3CCO)CS[C@H]12)c1csc(N)n1	0
CC1=C(C(=O)O)N2C(=O)[C@@H](NC(=O)[C@H](N)c3ccccc3)[C@H]2SC1 [CEPHALEXIN ANHYDROUS]	1
CN(C)c1ccc(O)c2c1C[C@H]1C[C@H]3[C@H](N(C)C)C(O)=C(C(N)=O)C(=O)[C@@]3(O)C(O)=C1C2=O	1
